Molecular target: Acetylcholinesterase (Electrophorus electricus, UniProt O42275)
Sequence (O42275 whole entry): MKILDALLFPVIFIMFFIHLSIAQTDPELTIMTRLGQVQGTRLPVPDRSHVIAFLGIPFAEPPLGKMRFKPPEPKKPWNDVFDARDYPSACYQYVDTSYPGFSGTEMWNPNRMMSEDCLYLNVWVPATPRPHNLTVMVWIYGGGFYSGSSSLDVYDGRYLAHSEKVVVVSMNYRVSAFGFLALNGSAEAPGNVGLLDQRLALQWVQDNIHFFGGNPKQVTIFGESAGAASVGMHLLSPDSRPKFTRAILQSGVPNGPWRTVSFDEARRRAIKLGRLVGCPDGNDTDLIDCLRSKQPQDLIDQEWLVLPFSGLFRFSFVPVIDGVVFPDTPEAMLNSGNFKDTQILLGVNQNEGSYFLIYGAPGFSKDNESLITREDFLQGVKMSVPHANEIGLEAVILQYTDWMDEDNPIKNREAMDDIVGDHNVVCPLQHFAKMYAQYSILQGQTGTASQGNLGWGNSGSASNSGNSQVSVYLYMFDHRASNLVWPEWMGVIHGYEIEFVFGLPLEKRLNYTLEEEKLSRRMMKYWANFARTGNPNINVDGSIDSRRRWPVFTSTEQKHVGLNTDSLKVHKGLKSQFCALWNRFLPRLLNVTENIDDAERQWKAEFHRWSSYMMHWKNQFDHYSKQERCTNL
Observable: IC50 (µM)
State the answer as a number, implicitly in µM.

Some solved entries appear below for comparison.
| Chemical Smiles | IC50 / µM |
| --- | --- |
| CN(CCC(=O)Nc1ccc2c(c1)sc(=O)n2C)Cc1ccccc1 | 49.5 |
| Cn1c(=O)sc2cc(NC(=O)CCN3CCC(c4ccccc4)CC3)ccc21 | 60.3 |
| Cn1c(=O)oc2cc(NC(=O)CCN3CCC(Cc4ccccc4)CC3)ccc21 | 24.6 |

Query block: Which IC50 is reported for this molecule? Cn1c(=O)oc2cc(C(=O)CCN3CCN(Cc4ccccc4)CC3)ccc21
Result block: 0.89

Query block: Next molecule: Cn1c(=O)sc2cc(NC(=O)CCCN3CCN(Cc4ccccc4)CC3)ccc21
Result block: 1.96

Query block: Next molecule: Cn1c(=O)sc2cc(NC(=O)CCN3CCC(Cc4ccccc4)CC3)ccc21
Result block: 31.9

Query block: Next molecule: Cn1c(=O)sc2cc(NC(=O)CCN3CCN(Cc4ccc(F)cc4)CC3)ccc21
Result block: 7.09

Query block: Next molecule: Cn1c(=O)sc2cc(NC(=O)CCCCN3CCN(Cc4ccccc4)CC3)ccc21
Result block: 14

Query block: Next molecule: Cn1c(=O)sc2cc(C(=O)CCN3CCC(c4ccccc4)CC3)ccc21
Result block: 4.32

Query block: Next molecule: CN(CCC(=O)Nc1ccc2c(c1)oc(=O)n2C)Cc1ccccc1
Result block: 52.4

Query block: Next molecule: Cn1c(=O)oc2cc(NC(=O)CCN3CCN(Cc4ccccc4)CC3)ccc21
Result block: 6.94
